System: K4 kissing-loop RNA reporter;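 note: bound reporter read as fluorescence of individual clusters on recovered sequencing chips by microscopy, with normalized cluster intensities fitted with a binding model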
METHOD_SUMMARY: apparent KD of K4 kissing-loop reporter; higher = weaker reporter binding
TEST_SETTINGS: Eterna round: R107; input ligand: none
OBSERVABLE: apparent KD of K4 kissing-loop reporter (nM)

{"RESIDUES": "GUAUCGCUAGGAGGAUAUUCCAUUUUACAUAGAAAUGGCUAUGCGGAGUGAUGUUCCGAUUUACGGGAAGAAGGCCUAGUGAUAC [FMN B 21]", "TEST_VALUE": 131}
{"RESIDUES": "GUUACGCAUGGAAGGAGCGCACUCCGAUUGGUCGACACAGUGAUGUUGUGGUUCGUUCGAAUGCAGGUAGGUCGCCAUGUGUAAC [Ex Arginine B K4 18]", "TEST_VALUE": 175}
{"RESIDUES": "CGCGCGGGUUUGAGAGGGUUUGCGCGAAGUGAGGAUAUUUAGGGAGAAAGAAGGCACUAUAAAAUAUAGUGAUGUUAUAUAAGGG [SSFMNA.I]", "TEST_VALUE": 251}
{"RESIDUES": "AGUCCACUCUAAAGAGUGGACCUAAGGGAUACCAGUGAUGUUGGUCACCCUUGGCAGCCCGCUGUCAUCGAUAAAGAUGGCAGUA", "TEST_VALUE": 112}
{"RESIDUES": "CACUUACGUAGUGAUGUUACGAUCUCUGAUACCAGACAACUCUAAGUCCCUUGGCAGCAGUCAUUUUGCUUAGUAUUUACUCAAA [JR_ExcTheophyA_Sub016]", "TEST_VALUE": 791}
{"RESIDUES": "AAGAAGAAUGGAAGGAGCGAGCAGAUAUAACCAGUGAUGUUGGAAAGCCUUAUUGCUUAAGCUCAGGUAGGUCGCCAAGAAAAGA [whbob_Ex_Arginine_B_2t151]", "TEST_VALUE": 172}
{"RESIDUES": "UUUGGUUUCUCGGCCGCCACUCGUUGUCUAUCGGCUUCAGGGAUAUAGUGAUGUUAUGUAUAGAAGAGGACCGGGAGAAGGUUUU [ExTryptoB.Dw]", "TEST_VALUE": 603}
{"RESIDUES": "GCCGUACGCAUGGAUACCAGUCUACAUCGCAGUGAUGUUGCGUAGUUCAGAUAGAUUGCCGACCCUUGGCAGCCAUGCGUACGGC", "TEST_VALUE": 111}
{"RESIDUES": "AAAAUAACCCAGUGAUGUUGGUAUGCAGAUACCAGCGACGAAAGUCGCCCUUGGCAGCUGUGGACGUACAAAAUAAGUACGUCCU", "TEST_VALUE": 1420}
{"RESIDUES": "GCAGGACGAGGAGGAGGAUGAAUUACUGAAGGAGCGCAUAUUGUUGCAGGUAGGUCGCGGUAAACAAGUAUAGUGAUGUUAUAUC [SSArgA.O]", "TEST_VALUE": 877}
{"RESIDUES": "AACUCUCACUGGAGUGAUGUUCUGGAAAACCGAGGACCGGUACGGCCGCCACUCGGAAAUGAGAGAGUCCUACGAAAAGUAGGAC [Omei inspired 1]", "TEST_VALUE": 217}
{"RESIDUES": "AGAUGGAAUAGAAGGAGCGGCGCCAGUGAUGUUGGAUGCCGCGGGUGAAUCAGAUCAUAGUGCCAGGUAGGUCGCUAUUUCAGCG [Anedin]", "TEST_VALUE": 106}
{"RESIDUES": "CCGCCGGUCGGAAGGAGCGCACGCCAGAGUGAUGUUCUGGCGCAGGCAUUUAGUGCCCGCGUGCAGGUAGGUCGCCGAUUCUGGC [Arlaaa]", "TEST_VALUE": 423}

====

Test system: MS2 coat protein
METHOD_SUMMARY: apparent KD of MS2 coat protein, switch OFF state (with FMN for OFF switches, without FMN for ON switches); designed switch direction (-1 OFF switch, 1 ON switch): 1; higher = weaker reporter binding
TEST_SETTINGS: FMN input: 0 or 200 uM; Eterna round: R93 (includes R88 designs)
Class boundaries, taken from values of apparent KD of MS2 coat protein, are as follows: range A = under 40 nM, range B = from 40 nM up to 60 nM, range C = 60 nM and over

{"RESIDUES": "CUGGACGUAGGAUAGGAUAUAUGAAUAAUUACAUGAGGAUCACCCAUGUCCAUUUAUAUGGGAACAUAGAAGGGUUGUGGUUAAG [Mat - Same state - Malcolm Mod - D145]", "TEST_TARGET": "MS2 coat protein", "LABEL": "range C"}
{"RESIDUES": "AUGAAUAGAAUCGAGGAUAUCCAGUCAUGAACAUGAGGAUCACCCAUGUAAGAGAGAGUAUAAUGGGAGAAGGCGAGUAAUAGAU [JR_SS002_Sub1702]", "TEST_TARGET": "MS2 coat protein", "LABEL": "range C"}
{"RESIDUES": "AAAAAACAUGAGGAUCACCCAUGUGACAACAUGGGAGGAUAUACAAAGACGAGAGUCGAAGUAGAAGGCCUAAAAA [Garnet 77]", "TEST_TARGET": "MS2 coat protein", "LABEL": "range A"}
{"RESIDUES": "AUAAAACAUGAGGAUCACCCAUGUAGAAAUAAGGGAGGAUAUACAAAGACGAAAGUCAAAGUAGAAGGCUCAAAAG [76%, Meechl 5]", "TEST_TARGET": "MS2 coat protein", "LABEL": "range A"}
{"RESIDUES": "AGAAAACAUGAGGAUCACCCAUGUAGAAACAUGGGAGGAUAUACAAAGACGAAAGUCAAAGUAGAAGGCCUAAAAA [Mat - Same State 1 - Mod - D163]", "TEST_TARGET": "MS2 coat protein", "LABEL": "range C"}
{"RESIDUES": "AAUAGACAUGAGGAUCACCCAUGUAGAAUUAUGGGAGGAUAUACAAAGACGAGAGUCAGAGUAGAAGGCCUAGGAG [salish99-ss1-150]", "TEST_TARGET": "MS2 coat protein", "LABEL": "range B"}
{"RESIDUES": "AGAAAUAAAGGAGAGGAUAUUCAAAAAGGGACAUGAGGAUCACCCAUGUAAAAGAAAAUAAAAUGGGAGAAGGCUCUAAAUAAAG [80%, More Helter Skelter 2]", "TEST_TARGET": "MS2 coat protein", "LABEL": "range B"}
{"RESIDUES": "AAAACACAUGAGGAUCACCCAUGUCAAAAAAACACAGGAUAUCCAAAAAAAAAAAAAAAAGGAGAAGGGUGAAAAA [high kcal]", "TEST_TARGET": "MS2 coat protein", "LABEL": "range B"}
{"RESIDUES": "GGGAGGAAGAGAGAGGAUAUCCAAAGGAAAACAUGAGGAUCACCCAUGUAAAAGGUAGGAAAUUGGGAGAAGGCUCAAAAGAAGG [salish99-ss2-045]", "TEST_TARGET": "MS2 coat protein", "LABEL": "range A"}
{"RESIDUES": "AAAAAACAUGAGGAUCACCCAUGUCUUCGGACAUGAGGAUAUGUACAGACUUCGGUCUGUACAGAAGGCAUAAAAA [SS1 - 1010]", "TEST_TARGET": "MS2 coat protein", "LABEL": "range A"}
{"RESIDUES": "GGGAGACAUGAGGAUCACCCAUGUGAGAAGAGGCGAGGAUAUCGAAAGAAAGAAGAGAAACGAGAAGGCGCGAGGA [salish99-SS1-051]", "TEST_TARGET": "MS2 coat protein", "LABEL": "range B"}

====

Test system: MS2 coat protein
METHOD_SUMMARY: apparent KD of MS2 coat protein; higher = weaker reporter binding
TEST_SETTINGS: Eterna round: R107; input ligand: none

{"RESIDUES": "CGGUUGCCACAUGAGGAUCACCCAUGUGAAGGAGCGGCGAAUAAGCCAGGUAGGUCGCGCAUGAAUAAAUCAUGUUGGUGCCGAA [XArg-A 17 V2]", "TEST_TARGET": "MS2 coat protein", "apparent KD of MS2 coat protein [nM]": 39.7}
{"RESIDUES": "GGAUAGGACAGAAGGAGCGACAUGAGGAUCACCCAUGUCUACUAGGACGAAAGUCCGUCAUGUCAGGUAGGUCGCUGUCCUAUCG [#29 Exclusion - Arginine B]", "TEST_TARGET": "MS2 coat protein", "apparent KD of MS2 coat protein [nM]": 88.7}
{"RESIDUES": "GCACCAGGUACGGAUACCAGACGUUGCCAAUUGGGUGCACAUGAGGAUCACCCAUGUUCUGUCCCUUGGCAGCCGUACCUGGUGC [EThB NP+V+V2 #5]", "TEST_TARGET": "MS2 coat protein", "apparent KD of MS2 coat protein [nM]": 10.1}
{"RESIDUES": "ACGUGCAGCAGAAGGAGCGUCUUAAUUCUACAUGAGGAUCACCCAUGUUUACAUUGGAUAUGACAGGUAGGUCGCUGAAGUACGA [#05 Same State - Arginine B]", "TEST_TARGET": "MS2 coat protein", "apparent KD of MS2 coat protein [nM]": 30}
{"RESIDUES": "ACGCCCAGGUAGGCUUAGUGGGAAAUGGAAGGAGCGCUGAUGCAAGCAGGUAGGUCGCCAACGAACAUGAGGAUCACCCAUGUAA [Same State - Arginine A (Freestyle 1)]", "TEST_TARGET": "MS2 coat protein", "apparent KD of MS2 coat protein [nM]": 17.9}
{"RESIDUES": "UGUAUGUGAUCUGAUACCAGUCCAACUGGUAAAACUUGAGGAUCACCCAGGUAAAAUUGGGACCCUUGGCAGCAGAUCGCAUACU", "TEST_TARGET": "MS2 coat protein", "apparent KD of MS2 coat protein [nM]": 316}
{"RESIDUES": "UGGGUACAUGAGGAUCACCCAUGUACUGAAGGAGCGAGAAUUAUCUCAGGUAGGUCGCAGACAUGAGGAUCACCCAUGUAGUAGG [Exclusion Arginine A GF 12]", "TEST_TARGET": "MS2 coat protein", "apparent KD of MS2 coat protein [nM]": 27.3}
{"RESIDUES": "ACGGAUCGGAAACGAUCCGCGGCUAGGGUGCGAGGACCGGUACGGCCGCCACUCGGGUAACAUGAGGAUCACCCAUGUCCGAUUU [ETA NP+V+V2 #13 Same Structure]", "TEST_TARGET": "MS2 coat protein", "apparent KD of MS2 coat protein [nM]": 92.7}
{"RESIDUES": "GGCUAGGCUAGCGAUACCAGCAACCAACAUGAUCUGAGGAUCACCCAGGUAGUUGGACGUUGCCCUUGGCAGCGCUAGCCUAGCC [SSThB NP+V+V2 #12 Diff Apt, Same Structure]", "TEST_TARGET": "MS2 coat protein", "apparent KD of MS2 coat protein [nM]": 14.3}
{"RESIDUES": "GUCCUCAGCCGAAGGAGCGCUAGAAGAUGACAUGAGGAUCACCCAUGUGUGUGAUGUGGCUAGCAGGUAGGUCGCGGAGAGGAUU [Exclusion - Arginine B (Freestyle 16)]", "TEST_TARGET": "MS2 coat protein", "apparent KD of MS2 coat protein [nM]": 22.9}
{"RESIDUES": "UUGGGUUUGUGAAGGAGCGGGAAAUAUAUAUAUAUAAUCCUAACAUGAGGAUCACCCAUGUCCCAGGUAGGUCGCGCGGGUUUGG [12.N]", "TEST_TARGET": "MS2 coat protein", "apparent KD of MS2 coat protein [nM]": 60.2}
{"RESIDUES": "UAUAUAGAUGGAAGUUCUAUAGAUGCAGAAGGAGCGUAGGAAACUACAGGUAGGUCGCUGAGGUACAUGAGGAUCACCCAUGUAG [SSArg A #20 Slice of Pi]", "TEST_TARGET": "MS2 coat protein", "apparent KD of MS2 coat protein [nM]": 26.4}

Origin of values: the supplement of paper PMC9170038
